The values you see were collected from PubChem BioAssay AID248.

The entries below are paired with their reported T/C.
Tested on: L1210 leukemia ip in BDF1 mice, survival T/C
Assay: NCI In Vivo Anticancer Drug Screen. Data for tumor model L1210 Leukemia (intraperitoneal) in B6D2F1 (BDF1) mice
Conditions: endpoint: mean survival time; dose: 200.0 mg/kg/injection; schedule: Q01DX009 (ip); vehicle: Klucel (hydroxypropylcellulose) (HPC); higher = longer survival
Inconclusive results and toxic doses are left out.
measured metric: T/C

{"compound": "COc1ccc2nc(NC3=NCCO3)sc2c1", "result": "94 % of control"}
{"compound": "CC(=O)c1c(OC(=O)c2ccccc2)cc(OC(=O)c2ccccc2)cc1OC(=O)c1ccccc1", "result": "93 % of control"}
{"compound": "CN(C)c1ccc(C(=O)C(O)c2ccccc2)cc1 (stereo not drawn)", "result": "88 % of control"}
{"compound": "COc1cccc(N=Cc2ccc(OC(=O)c3ccccc3)c(OC)c2)c1", "result": "94 % of control"}
{"compound": "NS(=O)(=O)c1ccc(N=Cc2cc(Cl)cc(Cl)c2O)cc1", "result": "106 % of control"}
{"compound": "CN(C)C(=O)Sc1ccc(Cl)cc1S(=O)(=O)F", "result": "100 % of control"}
{"compound": "COc1ccc(C)cc1NC(=O)Nc1cc(C(F)(F)F)ccc1Cl", "result": "95 % of control"}
{"compound": "NNc1ccc(C(=O)O)cc1", "result": "96 % of control"}
{"compound": "CNC(=S)N/N=C(/C)C(=O)O", "result": "96 % of control"}
{"compound": "O=C(N/N=C/c1c[nH]c2ccccc12)C1CCCO1 (stereo not drawn)", "result": "98 % of control"}
{"compound": "ClC1c2ccccc2-c2nsnc2C1Cl (stereo not drawn)", "result": "91 % of control"}
{"compound": "Cc1ccc([N+](=O)[O-])c(O)c1[N+](=O)[O-]", "result": "93 % of control"}
{"compound": "CC(C)=C(Cl)c1c(C)cc(C)c(CC(N)=O)c1C", "result": "105 % of control"}
{"compound": "COc1ccccc1NC(=O)c1ccc(Cl)cc1", "result": "98 % of control"}
{"compound": "CCCCNC(=O)Nc1ccccc1C(N)=O", "result": "95 % of control"}
{"compound": "COc1ccc([N+](=O)[O-])cc1NC(=S)NC(=O)c1cccc(Br)c1", "result": "92 % of control"}
{"compound": "CCOCC(=O)c1c(O)cc(O)cc1O", "result": "92 % of control"}
{"compound": "CC(=O)OC1CCCCCCC1", "result": "100 % of control"}
{"compound": "CC(=O)Nc1nc(-c2ccc([N+](=O)[O-])cc2)c(CCC=O)c(=O)[nH]1", "result": "94 % of control"}
{"compound": "Nc1ccccc1SC1CC(=O)N(c2cccc(Cl)c2)C1=O (stereo not drawn)", "result": "92 % of control"}
{"compound": "O=C(O)c1ccc(Cl)o1", "result": "98 % of control"}
{"compound": "c1ccc(CSSCc2ccccc2)cc1", "result": "96 % of control"}
{"compound": "CCS(=O)(=O)Nc1ccc(NS(=O)(=O)CC)cc1", "result": "100 % of control"}
